PROTOCOL_TEXT: qHTS assay for small molecules that induce genotoxicity in human embryonic kidney cells expressing luciferase-tagged ATAD5 - cell viability (AID 651634); note: nearly all actives have a fitted effect of over 25% in size
ASSAY_CONTEXT: HEK293T ATAD5-luc cells viability, CellTiter-Fluor, 15.5 h; series mostly up to 83.3 µM
Results filed as inconclusive are left out. The source made the active and inactive calls. Calls come from the whole dose curve.
Respond with a class label; see y for active, n for inactive

Examples from the recorded data:
O=C1c2ccccc2C(=O)C1c1ccc(Cl)cc1 = n
CC[C@@]1(O)C[C@H](O[C@H]2C[C@H](N(C)C)[C@H](O[C@H]3C[C@H](O)[C@H](O[C@H]4CCC(=O)[C@H](C)O4)[C@H](C)O3)[C@H](C)O2)c2c(cc3c(c2O)C(=O)c2c(O)cccc2C3=O)[C@H]1C(=O)OC = y
S=C1SCN(Cc2ccccc2)CN1Cc1ccccc1 = n

Query block: Please share the test call associated with CC(O)[C@@H]1NC(=O)[C@H](CCCCN)NC(=O)[C@@H](Cc2c[nH]c3ccccc23)NC(=O)[C@H](Cc2ccccc2)NC(=O)[C@@H](NC(=O)[C@H](N)Cc2ccccc2)CSSC[C@@H](C(=O)N[C@H](CO)[C@@H](C)O)NC1=O (stereo partly specified) .
Result block: n

Query block: Which outcome did this test record for the compound C=CCN1CCCC1CNC(=O)c1cc(S(N)(=O)=O)cc(OC)c1OC (stereo unspecified) ?
Result block: n

Query block: I would be grateful if you could indicate the recorded call for `CC(=O)[C@@]1(O)CC[C@H]2[C@@H]3C=C(Cl)C4=CC(=O)[C@@H]5C[C@@H]5[C@]4(C)[C@H]3CC[C@@]21C` .
Result block: n

Taken from PubChem BioAssay (Tox21).
